# Test system: MDR1
# experiment notes: MDCK-MDR1 permeability assay
# Assay type: in vitro ADME
# assay context: dog, MDCK-MDR1, MDCK-MDR1 cells; Papp B→A divided by Papp A→B; 3 μM; 2 hours; read-out: Efflux ratio (ER)
observed property: efflux ratio at 2 h, 3 μM

| molecule | observed property | readout qualifier | result value |
| --- | --- | --- | --- |
| O=C1COc2ccccc2C2CCC(CC2)OC[C@H]2[C@@H](NS(=O)(=O)CF)CCCN12 (stereo in doubt) | efflux ratio at 2 h, 3 μM | = | 35 |
| Cc1ccc2c(c1)OCC(=O)N1CCC[C@H](NS(C)(=O)=O)C1CO[C@H]1CC[C@@H]2CC1 (stereo in doubt) | efflux ratio at 2 h, 3 μM | > | 100 |
| Cc1ncnc2c1[C@H]1CC[C@H](CC1)OCC1[C@@H](NS(C)(=O)=O)CCN1C(=O)CO2 (stereo in doubt) | efflux ratio at 2 h, 3 μM | = | 59 |
| CCS(=O)(=O)N[C@H]1CCCN2CCOc3ccccc3[C@H]3CC[C@H](CC3)OCC12 (stereo in doubt) | efflux ratio at 2 h, 3 μM | = | 1.8 |
| O=C1COc2ccc(Cl)cc2C2CCC(CC2)OC[C@H]2[C@@H](NS(=O)(=O)C3CC3)CCCN12 (stereo in doubt) | efflux ratio at 2 h, 3 μM | > | 100 |
| CN(C)CCS(=O)(=O)N[C@H]1CCCN2C(=O)COc3ccccc3[C@H]3CC[C@H](CC3)OCC12 (stereo in doubt) | efflux ratio at 2 h, 3 μM | > | 100 |
